biological target: MYC (Homo sapiens); construct: endogenous in cells; host or cells: PC3 cells; assay: MYC protein level in PC3 cells by western blot, 24 hr; assay type: cell-based; conditions: PC-3, 24 h, PC3, 24 h, Actin control, read-out: Relative MYC protein at 10 μM (%, PC3 24 h)
Sequence (P01106 whole entry): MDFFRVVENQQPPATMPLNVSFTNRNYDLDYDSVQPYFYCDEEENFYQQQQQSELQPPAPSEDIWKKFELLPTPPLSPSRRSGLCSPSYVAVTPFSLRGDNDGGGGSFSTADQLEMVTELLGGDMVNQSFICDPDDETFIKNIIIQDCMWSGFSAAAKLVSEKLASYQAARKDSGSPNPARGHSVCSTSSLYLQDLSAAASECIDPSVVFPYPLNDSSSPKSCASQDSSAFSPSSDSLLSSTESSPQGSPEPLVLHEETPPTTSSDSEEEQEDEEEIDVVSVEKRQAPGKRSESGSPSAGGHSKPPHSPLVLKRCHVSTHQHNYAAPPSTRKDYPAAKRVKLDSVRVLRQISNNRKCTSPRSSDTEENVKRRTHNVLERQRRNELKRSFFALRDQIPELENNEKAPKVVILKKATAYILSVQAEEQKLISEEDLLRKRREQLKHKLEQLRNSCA
assay endpoint: remaining activity at 10 µM (%)

Example cases with answers are listed next.
For record Cn1nc(C(F)(F)F)cc1-c1ccc(OCCCCCOCCOCCOc2cccc3c2C(=O)N(C2CCC(=O)NC2=O)C3=O)c(-c2ccc(Cl)c(C(F)(F)F)c2)c1O (stereo not drawn) [NUCC-0226224] the listed remaining activity at 10 µM is 84.2

For record Cn1nc(C(F)(F)F)cc1-c1ccc(Cc2ccc(Cl)cc2)c(-c2ccc(Cl)c(C(F)(F)F)c2)c1O [NUCC-0226566] the listed remaining activity at 10 µM is 43.7

For record CC(C)Cc1ccc(CN(C(=O)c2ccc(Cl)c(C(F)(F)F)c2)c2ccc(-c3cc(C(F)(F)F)nn3C)c(O)c2)cc1 [NUCC-0226280] the listed remaining activity at 10 µM is 45.2

For record Cn1nc(C(F)(F)F)cc1-c1ccc(COc2ccc(Cl)cc2)c(-c2ccc(Cl)c(C(F)(F)F)c2)c1O [NUCC-0202416] the listed remaining activity at 10 µM is 38.9

P = Cn1nc(C(F)(F)F)cc1-c1ccc(OCc2ccc(Cl)cc2)c(-c2ccc(F)cc2)c1O [NUCC-0226503]
Q = Cn1nc(C(F)(F)F)cc1-c1cc(Cl)c(N)c(-c2ccc(Cl)c(C(F)(F)F)c2)c1O [NUCC-0226528]
R = CN(C)c1c(Cl)cc(-c2cc(C(F)(F)F)nn2C)c(O)c1-c1ccc(Cl)c(C(F)(F)F)c1 [NUCC-0226530]
I would appreciate it if you could sort these 3 compounds by remaining activity at 10 µM, starting from the smallest number. Rank them, then answer with their labels in that order. Q, R, P
(Q: 19.8%, R: 35.5%, P: 129%)
